subject_of_test: T1, human CD22-ECD-His protein (human, UniProt P20273 20-687)
T1 construct: Made in house in HEK293E; also called hCD22-ECD-His; recombinant human CD22-ECD His protein; not shown: His tag
T1 sequence: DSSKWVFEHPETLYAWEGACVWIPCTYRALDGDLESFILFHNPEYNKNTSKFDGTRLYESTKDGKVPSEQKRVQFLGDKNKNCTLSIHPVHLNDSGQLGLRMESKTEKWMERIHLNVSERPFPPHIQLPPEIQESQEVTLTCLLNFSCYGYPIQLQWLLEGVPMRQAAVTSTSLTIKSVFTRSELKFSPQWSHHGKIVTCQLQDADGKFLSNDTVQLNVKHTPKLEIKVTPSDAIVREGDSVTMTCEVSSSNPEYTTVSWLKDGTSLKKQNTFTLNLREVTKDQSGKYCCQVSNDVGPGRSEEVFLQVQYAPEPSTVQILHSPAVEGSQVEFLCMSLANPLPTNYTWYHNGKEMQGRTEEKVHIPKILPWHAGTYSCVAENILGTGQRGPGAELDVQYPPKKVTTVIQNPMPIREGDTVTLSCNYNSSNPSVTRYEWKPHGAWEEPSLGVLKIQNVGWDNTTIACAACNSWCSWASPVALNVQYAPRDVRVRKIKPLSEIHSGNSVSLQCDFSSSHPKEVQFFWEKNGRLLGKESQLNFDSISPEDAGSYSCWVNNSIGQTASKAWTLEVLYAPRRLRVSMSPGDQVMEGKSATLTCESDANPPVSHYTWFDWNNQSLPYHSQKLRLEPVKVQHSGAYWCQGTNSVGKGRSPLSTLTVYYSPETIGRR
experimental_protocol: ELISA, Ab 10.00 nM
property: OD450 (OD450)

[[record]]
binder = "F1.280.1 (antibody, human IgG1, kappa, V domains shown, Human-murine chimeric IgG1, kappa) VH: QIQLVQSGPELKKPGETVKISCKASGYTFTTYGMSWVKQTPGKGLTWMGWINTDSGVPTYADDFKRRFAFSLEASATTAYLQINNLKNEDTATYFCARGGPDYWGQGTTLTVSS VL: DILLTQSPATLSVTPGETVSLSCRASQSIYKNLHWYHQKSHRSPRLLIKYASDSISGIPSRFTGSGSGTNFTLSINSVKPEDEGIYYCLQGYIVPLTFGAGTKLELKR"
value_reported = 2.3

[[record]]
binder = "F1.257.3 (antibody, human IgG1, kappa, V domains shown, Human-murine chimeric IgG1, kappa) VH: QVQLQQSGPELARPGASVKLSCKASGYTFTSYGISWVKQRTGQDLEWIGEIYPKLGTTYYNEKFKDKATLTTDRSSSTAYMALRSLTSEDSAVYFCACPHYYATRGGDYWGQGTTLTVSS VL: EIVLTQSPATLSVTPGDSVTFSCRASQSISNHLHWYQQKSHESPRLLIRYASQSISGIPSRFSGSGSGTDFTLSLSSVETEDFGVYFCQQSHSWPYTFGGGTKLEIAR"
value_reported = 2.64

[[record]]
binder = "F1.62.10 (antibody, human IgG1, kappa, V domains shown, Human-murine chimeric IgG1, kappa) VH: QVQLQQSGPELVKPGASVKISCKASGYEFSSIWMNWVKQRPGEGLEWIGRIFPGDGEINYNEKFKGKATLTADRSSTTAYMQLSSLTSEDSAVYFCAGWRIYYGTYGAMDYWGQGTSVTVSS VL: DIQMTQITSSLSASLGDRVTISCRASQDIGNYLNWYQQKPDGTVKLLIYYTSRLHSGVPSRFSGSGSRTDYSLTISNLQQEDIATYFCQQGNTLPWTFGGGTKLEIKR"
value_reported = 2.67


Attribution: patent US20240084003A1
